Let's look at some compounds and their measured logP.
EXPERIMENTAL PROTOCOL: Lipophilicity, log P of the compound
Type: physicochemical
EXPERIMENTAL CONDITIONS: octanol/water

COMPOUND: C[C@]12CCC(=O)c3coc(c31)C(=O)C[C@@H]2O (racemic)
logP: 0.58
//
COMPOUND: C[C@]12CCC(=O)c3coc(c31)C(=O)[C@@H]1[C@@H]2CC[C@]2(C)C(=O)CC[C@@H]12
logP: 2.65

Numbers sourced from ChEMBL document CHEMBL2157974.
